# Assay Notes: qHTS assay for small molecule disruptors of the mitochondrial membrane potential (AID 720635); further: potency means the concentration at half of the fitted maximal effect
# Assay Conditions: HepG2 mitochondrial membrane potential, Mito-MPS dye ratio; series mostly up to 83.2 µM
Records with an inconclusive call do not appear. Active and inactive are the calls of the source. The call rests on the fitted dose curve; in most records, active means well fitted inhibition curve with a large enough effect in the signal ratio in the repeat runs; inconclusive means weak or mixed curves, or effect the other way; inactive means flat fitted curve, though single readings scatter; the % refers to the signal ratio.

Molecule | Potency
Cc1oc(C)c(C(=O)Nc2ccccc2)c1C | 27.3 µM (active)
CCCCCCCCCOC(C)=O | inactive
C[N+](C)(C)CCOC(N)=O | inactive
C=C(C)C(=O)OCCOC(=O)CC(C)=O | inactive
NC(=O)Nc1ccc(Cl)c(Cl)c1 | 48.4 µM (active)
CCCCC(CC)CNCC(CC)CCCC (centres undefined) | inactive
CCC(=O)OC/C=C/c1ccccc1 | inactive
CCCOC(=O)c1ccc(C(=O)OCCC)nc1 | inactive
O=C(O)c1cccc(O)c1 | inactive
C=CC(=C)CCCC(C)(C)OC(C)=O | inactive
CCCC(=O)O[C@]1(C(=O)COC(=O)CC)CC[C@H]2[C@@H]3CCC4=CC(=O)CC[C@]4(C)[C@H]3[C@@H](O)C[C@@]21C | inactive
CC1(C)C2=CCCC(C)(C)[C@]23CC[C@H]1C3 | inactive
CC(CCc1ccc2c(c1)OCO2)NN (centres undefined) | inactive
CCC(C(=O)OCCN(CC)CC)c1ccccc1 (centres undefined) | inactive
CC(C)C(OC(=O)c1ccccc1)C(C)(C)COC(=O)c1ccccc1 (centres undefined) | 27.3 µM (active)
CCC(C)(O)CCC=C(C)C (centres undefined) | inactive
O=C(O)C(Cc1cc(I)c(O)c(I)c1)c1ccccc1 (centres undefined) | inactive
O=C(OCCOCCO)c1ccccc1Nc1cccc(C(F)(F)F)c1 | inactive
Cc1ccc(S(=O)(=O)NC2CCCCC2)cc1 | 21.5 µM (active)
CC(COc1ccc(C(C)(C)C)cc1)OS(=O)OCCCl (centres undefined) | inactive
CCC(C(=O)OCCOCCN(CC)CC)c1ccccc1 (centres undefined) | inactive
CCCOC(=O)c1ccc(N)cc1 | inactive
CCCCCCCC/C=C\CCCCCCCC(=O)OC(CO)CO | inactive
CC1C2CC(CC2C2CCCC(O)C2)C1(C)C (centres undefined) | 27.3 µM (active)
